Target Or Test System: somatostatin receptors (Rattus norvegicus)
Construct: endogenous in cells; host or cells: rat AR 42J pancreatic acinar tumor cell membranes
Sequence (P30680 whole entry): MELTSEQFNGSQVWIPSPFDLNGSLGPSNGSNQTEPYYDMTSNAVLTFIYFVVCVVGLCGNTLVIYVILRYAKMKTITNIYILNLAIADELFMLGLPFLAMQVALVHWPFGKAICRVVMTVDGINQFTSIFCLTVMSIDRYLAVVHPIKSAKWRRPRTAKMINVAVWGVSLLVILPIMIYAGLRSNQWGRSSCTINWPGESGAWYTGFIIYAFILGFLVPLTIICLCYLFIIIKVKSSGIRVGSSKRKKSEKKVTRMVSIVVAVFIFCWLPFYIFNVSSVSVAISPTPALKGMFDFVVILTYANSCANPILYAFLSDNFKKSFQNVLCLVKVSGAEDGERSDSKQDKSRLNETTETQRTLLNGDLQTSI
Experiment Summary: Somatostatin membrane receptor assay, 125I-[Tyr11]SS-14, AR 42J cell membranes
Format: binding
Condition: Cheng method; table prints no unit (b360 gives nM for a Table 4 value); read-out: affinity, 125I-[Tyr11]SS-14, AR 42J Cell Membranes (somatostatin receptors)
Where a SMILES comes first, the peptide text is derived from it. Bridges are numbered along the chain shown (N, C = ends). [ ]: non-standard residue; d: D form. 2Nal = N[C@@H](Cc1ccc2ccccc2c1)C(=O)O; d2Nal = N[C@H](Cc1ccc2ccccc2c1)C(=O)O

>  <Compound>
CC(C)[C@@H]1NC(=O)[C@H](CCCCN)NC(=O)[C@@H](Cc2c[nH]c3ccccc23)NC(=O)[C@H](Cc2ccc(O)cc2)NC(=O)[C@@H](NC(=O)[C@H](N)Cc2ccc3ccccc3c2)CSSC[C@H](C(=O)N[C@@H](Cc2ccc3ccccc3c2)C(N)=O)NC1=O [Analog #11] (H-[d2Nal]CY[dW]KV[dC][2Nal]-NH2; disulfide 2-7)

>  <Units>
nM

>  <Ki>
48

$$$$
>  <Compound>
CC(C)[C@@H]1NC(=O)[C@H](CCCCN)NC(=O)[C@@H](Cc2c[nH]c3ccccc23)NC(=O)[C@H](Cc2ccc(O)cc2)NC(=O)[C@@H](NC(=O)[C@H](N)Cc2c[nH]c3ccccc23)CSSC[C@@H](C(=O)N[C@@H](Cc2ccc3ccccc3c2)C(N)=O)NC1=O [Analog #12] (H-[dW]CY[dW]KVC[2Nal]-NH2; disulfide 2-7)

>  <Units>
nM

>  <Ki>
3.1

$$$$
>  <Compound>
CC(C)[C@@H]1NC(=O)[C@H](CCCCN)NC(=O)[C@@H](Cc2c[nH]c3ccccc23)NC(=O)[C@H](Cc2ccc(O)cc2)NC(=O)[C@@H](NC(=O)[C@@H](N)Cc2ccc3ccccc3c2)CSSC[C@@H](C(=O)N[C@H](Cc2ccc3ccccc3c2)C(N)=O)NC1=O [Analog #9] (H-[2Nal]CY[dW]KVC[d2Nal]-NH2; disulfide 2-7)

>  <Units>
nM

>  <Ki>
2.8

$$$$
